- system_name: Polyadenylate-binding protein 1 (Homo sapiens, UniProt P11940)
- Sequence (P11940 whole entry, the tested form may be a part): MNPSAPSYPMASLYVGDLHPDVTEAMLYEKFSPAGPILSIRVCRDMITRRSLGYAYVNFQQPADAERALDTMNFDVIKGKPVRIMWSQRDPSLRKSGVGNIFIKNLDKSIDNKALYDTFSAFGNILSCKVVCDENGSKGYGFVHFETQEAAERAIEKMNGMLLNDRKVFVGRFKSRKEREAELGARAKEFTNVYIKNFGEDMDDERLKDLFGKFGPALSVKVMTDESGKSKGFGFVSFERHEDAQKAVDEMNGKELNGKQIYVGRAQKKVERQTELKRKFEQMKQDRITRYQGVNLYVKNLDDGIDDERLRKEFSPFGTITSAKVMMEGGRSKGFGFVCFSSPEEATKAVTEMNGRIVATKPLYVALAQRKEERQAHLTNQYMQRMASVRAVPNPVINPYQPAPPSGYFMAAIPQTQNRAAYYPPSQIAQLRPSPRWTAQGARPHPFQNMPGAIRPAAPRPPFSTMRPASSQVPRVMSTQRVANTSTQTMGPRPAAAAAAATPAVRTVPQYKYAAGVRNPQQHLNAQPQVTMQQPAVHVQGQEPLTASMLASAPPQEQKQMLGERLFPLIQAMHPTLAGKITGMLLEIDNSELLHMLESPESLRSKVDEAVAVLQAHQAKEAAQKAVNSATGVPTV
- assay_comment: MLLE domain peptide-binding blockers, IC50 – biochemical, fluorescence polarization, FITC-PAM2 peptide, dose response (AID 602259)
- Assay type: functional
- assay_context: read-out: IC50_Mean
Counter-ions that a name gives are not always drawn. The source made the active and inactive calls.
Assignment: determine reported IC50 for the given compounds.

Q. What does the record list as IC50 for O=C(NC(=S)NNS(=O)(=O)c1ccccc1)c1cccnc1 ?
A. > 66 µM (inactive)

Q. And CCc1c(O)nc(SCC(=O)N2CCc3cc(OC)c(OC)cc3[C@@H]2C)nc1O ?
A. > 66 µM (inactive)

Q. And CS(=O)(=O)c1ccc2nc(NC3(C(F)(F)F)N=C4SCCN4C3=O)sc2c1 (stereo not given) ?
A. > 66 µM (inactive)

Q. And O=c1c(O)cccc2cc(O)c(O)c(O)c12 [PURPUROGALLIN] ?
A. 47.9 µM (inactive)

Q. And CC1=NN(c2ccccc2)C(=O)C1C(=S)SC1CC(=O)NC1=O (stereo not given) ?
A. > 66 µM (inactive)

Q. And O=C(O)CCN1C(=O)C(=C2CCCCCC2)SC1=S ?
A. > 66 µM (inactive)

Q. And O=C(Cn1nnc(-c2cc(C(F)(F)F)cc(C(F)(F)F)c2)n1)NN=C(S)Nc1ccc(Cl)cc1 ?
A. > 66 µM (inactive)

Q. And Cc1ccc(-n2[nH]c(C)c(/C=N/c3ccc4[nH]c(O)nc4c3)c2=O)cc1C ?
A. 22 µM (inactive)

Q. And CC(=O)c1ccc2c(c1)N(CCCN(C)C)c1ccccc1S2 [ACEPROMAZINE MALEATE] ?
A. > 66 µM (inactive)

Q. And OC1=C2Sc3ccccc3N=C2CCC1 ?
A. 59 µM (inactive)

* * *

- system_name: Ubiquitin-conjugating enzyme E2 N (Homo sapiens, UniProt P61088);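 note: Dose-response confirmation in a TR-FRET assay detecting UBC13-driven polyubiquitin chain formation, inhibition measured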
- Sequence (P61088 whole entry): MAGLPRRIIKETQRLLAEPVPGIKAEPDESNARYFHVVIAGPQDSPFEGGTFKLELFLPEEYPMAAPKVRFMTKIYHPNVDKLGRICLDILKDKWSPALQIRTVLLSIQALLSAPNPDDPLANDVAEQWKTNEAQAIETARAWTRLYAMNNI
- Assay type: functional
The source made the active and inactive calls.
Output constraint: value belongs to True = active, False = inactive

Q. Check the results log: what was the call for CC1CC(C)(C)n2c(O)c(/N=N/C(=N)S)c3cccc1c32 (stereo not given) ?
A. True

Q. And C=CCc1ccccc1OCC(O)CN1CCN(CCN2C(=O)c3cccc4cccc(c34)C2=O)CC1 (stereo not given) ?
A. True

Q. And CS(=O)(=O)c1ncc(Cl)c(C(=O)Nc2ccc(N3CCOCC3)cc2)n1 ?
A. True

Q. And Cc1cc(Sc2nnc(/N=C/N(C)C)s2)c2ccccc2n1 ?
A. True

Q. And CCCCn1c(SCC(=O)Nc2cc(C)n[nH]2)nc2ccsc2c1=O ?
A. False

Q. And CSCCC(NC(=O)c1ccc(Cl)cc1Cl)C(=O)NNC(=O)c1csc(N2CCOCC2)n1 (stereo not given) ?
A. False

Q. And C=CCn1c(=O)c(C(=O)Nc2ccccc2S(N)(=O)=O)c(O)c2ccccc21 ?
A. False

Q. And Nc1ccc2c(c1)C(=O)Cc1ccccc1S2 ?
A. False

Q. And COc1ccc(-c2cc(C(=O)NCCCN3CCCC3=O)c3ccccc3n2)cc1 ?
A. False

Q. And NC(=O)c1c(NC(=O)C(=O)NCCCN2CCOCC2)sc2c1CCCC2 ?
A. False

* * *

- assay_comment: loss of viability in HepG2 cells – cell-based, CellTiter-Glo, cherry-picked, cytotoxicity control for Shn3 inhibitor project, dose response (AID 624134)
- Assay type: functional
Calls of active or inactive are those of the source.
endpoint_name: AC50

Q. What does the record list as AC50 for O=[N+]([O-])c1ccc2ncnc(N3CCN(Cc4ccc5c(c4)OCO5)CC3)c2c1 ?
A. 35.6 µM (active)

Q. And CN(Cc1cccc(Cl)c1Cl)C(=O)c1cccc(S(=O)(=O)N2CCN(Cc3ccccc3)CC2)c1 ?
A. 55.6 µM (active)

Q. And O=C(CSc1nnc(Cn2nnc3ccccc32)o1)N(Cc1ccc(Cl)cc1)c1ccccc1 ?
A. 6.74 µM (active)

Q. And COc1ccc(C[C@H]2COC(=O)[C@@H]2Cc2ccc(OC3OC(CO)C(O)C(O)C3O)c(OC)c2)cc1OC (stereo not given in full) ?
A. 48.3 µM (active)

Q. And CS(=O)(=O)c1ncc(Cl)c(C(=O)Nc2ccc(N3CCOCC3)cc2)n1 ?
A. 24 µM (active)
